Target: QTRT1 (catalytic subunit of TGT);QTRT2 (accessory subunit of TGT) (Mus musculus;Mus musculus, UniProt Q9JMA2;B8ZXI1 1-403;1-415, |)
Sequence (Q9JMA2 whole entry, chain 1 of 2): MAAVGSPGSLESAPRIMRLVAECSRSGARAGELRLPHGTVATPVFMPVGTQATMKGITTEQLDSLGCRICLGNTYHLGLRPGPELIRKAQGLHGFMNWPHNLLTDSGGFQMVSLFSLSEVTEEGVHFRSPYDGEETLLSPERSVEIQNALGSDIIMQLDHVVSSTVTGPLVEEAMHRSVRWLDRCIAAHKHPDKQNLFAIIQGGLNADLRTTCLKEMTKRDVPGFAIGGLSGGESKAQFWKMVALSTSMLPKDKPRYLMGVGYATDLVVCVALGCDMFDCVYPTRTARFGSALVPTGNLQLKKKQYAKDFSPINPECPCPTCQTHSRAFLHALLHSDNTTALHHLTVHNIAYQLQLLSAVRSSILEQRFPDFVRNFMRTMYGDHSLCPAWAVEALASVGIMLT
Sequence (B8ZXI1 whole entry, chain 2 of 2): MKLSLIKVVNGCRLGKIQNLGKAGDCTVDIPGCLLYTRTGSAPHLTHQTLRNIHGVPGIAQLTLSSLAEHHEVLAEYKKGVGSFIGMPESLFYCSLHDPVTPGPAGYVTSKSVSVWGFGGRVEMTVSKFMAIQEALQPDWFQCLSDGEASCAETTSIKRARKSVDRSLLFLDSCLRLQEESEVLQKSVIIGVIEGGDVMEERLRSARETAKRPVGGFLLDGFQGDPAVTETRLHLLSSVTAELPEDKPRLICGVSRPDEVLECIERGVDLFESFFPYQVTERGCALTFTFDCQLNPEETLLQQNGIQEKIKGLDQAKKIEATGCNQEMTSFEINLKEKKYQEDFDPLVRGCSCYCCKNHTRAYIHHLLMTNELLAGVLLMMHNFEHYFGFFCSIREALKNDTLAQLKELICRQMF
Assay: MST; no 9dG; MST: 20 mM HEPES pH 7.5, 75 mM NaCl, 1 mM MgCl2, 0.025% Tween 20, 2 mM DTT, 50 nM Cy5-tRNA, 25 C, +/-100 uM 9dG; EMSA: same buffer without Tween, 100 uM 9dG, 200 nM tRNA, 4 C, 6% native gel
Conditions: protein: recombinant;recombinant; copies: 1;1; label: Cy5-cytosine incorporated during transcription (MST, EMSA); tRNA cloverleaf
parameter_measured: Kd (nM)
Give the value in nM but do not write nM after it.

Problem: Give the measured Kd for m_tRNATyr (mature, GUA) (structured_RNA, none (unmodified transcript)) RNA: GGCCUUCGAUAGCUCAGUUGGUAGAGCGGAGGACUGUAGAUCCUUAGGUCGCUGGUUCGAAUCCGGCUCGAAGGA
Result: 2400
